Assay: Clearance in ICR mouse at 5 mg/kg, po via gavage by LC/MS/MS analysis
Assay type: ADME, organism-based
Settings: in vivo
result.type: CL/F (mL/min/kg)
Provide only the numeric value, understood in mL/min/kg.

Fill in reported CL/F for this entry: `C=CC(=O)N1CCN(c2ccc([N+](=O)[O-])c(C3=C(c4c[nH]c5ccccc45)C(=O)NC3=O)c2)CC1`
138
